Where these numbers come from: ChEMBL document CHEMBL1141898

Recorded measurements of Efficacy, one per entry
# experimental system: Neuronal acetylcholine receptor; alpha4/beta2 (Homo sapiens, UniProt P17787+P43681)
# assay text: Percentage efficacy in K-177 cells expressing acetylcholine central neuronal receptor type alpha-4 beta2 subunits as change in membrane potential
# Format: functional, cell-based
Report the figure in % without appending any unit label.

Example molecules with recorded Efficacy:
molecule: O=c1ccc(Cl)c2n1CC1CNCC2C1 (configuration not stated)
measurement label: Efficacy
value observed: 58
//
molecule: O=c1c(I)cc(I)c2n1CC1CNCC2C1 (configuration not stated)
measurement label: Efficacy
value observed: 42
//
molecule: C[N+]1(C)CC2CC(C1)c1cccc(=O)n1C2 (configuration not stated)
measurement label: Efficacy
value observed: 70
//
molecule: O=c1c(I)ccc2n1CC1CNCC2C1 (configuration not stated)
measurement label: Efficacy
value observed: 92
//
molecule: Clc1ccc(C2CC3CCC2N3)cn1 (configuration not stated) [EPIBATIDINE]
measurement label: Efficacy
value observed: 100

State the recorded Efficacy for this entry: O=c1c(Br)cc(Br)c2n1CC1CNCC2C1 (configuration not stated)
23

What do you have for O=c1c(Br)ccc2n1CC1CNCC2C1 (configuration not stated) ?
85

What do you have for S=c1cccc2n1CC1CNCC2C1 (configuration not stated) ?
28
